- Tested on: mice
- TEST METHOD NOTES: Minimal neurotoxicity (TOX), rotorod test, mice i.p.
- Assay type: in vivo
- CONDITIONS: mice i.p., 100 mg/kg, 0.5h
Provide the reported TOX, number of animals exhibiting toxic effects / total number of animals tested of each item.

In the examples that follow, each entry is paired with its recorded TOX, number of animals exhibiting toxic effects / total number of animals tested.
- COMPOUND: "NC(=O)OCC(F)(CO)c1ccccc1 (stereo not shown) [fluoro monocarbamate felbamate]"
  VALUE MEASURED: "3/8"
- COMPOUND: "O=C1NC(O)C(c2ccccc2)CO1 (stereo not shown)"
  VALUE MEASURED: "0/8"
- COMPOUND: "NC(=O)OCC(F)(COC(N)=O)c1ccccc1 [fluoro felbamate]"
  VALUE MEASURED: "4/8"

Quick one: give measured TOX, number of animals exhibiting toxic effects / total number of animals tested for O=C1NC(=O)C(F)(c2ccccc2)CO1 (stereo not shown)
0/8
